Target: Full length DGKζ (in-house protein M1-V929) (Homo sapiens, UniProt Q13574)
Construct: His (N); TEV site (N)
Sequence (Q13574 1-929 isoform Q13574-4): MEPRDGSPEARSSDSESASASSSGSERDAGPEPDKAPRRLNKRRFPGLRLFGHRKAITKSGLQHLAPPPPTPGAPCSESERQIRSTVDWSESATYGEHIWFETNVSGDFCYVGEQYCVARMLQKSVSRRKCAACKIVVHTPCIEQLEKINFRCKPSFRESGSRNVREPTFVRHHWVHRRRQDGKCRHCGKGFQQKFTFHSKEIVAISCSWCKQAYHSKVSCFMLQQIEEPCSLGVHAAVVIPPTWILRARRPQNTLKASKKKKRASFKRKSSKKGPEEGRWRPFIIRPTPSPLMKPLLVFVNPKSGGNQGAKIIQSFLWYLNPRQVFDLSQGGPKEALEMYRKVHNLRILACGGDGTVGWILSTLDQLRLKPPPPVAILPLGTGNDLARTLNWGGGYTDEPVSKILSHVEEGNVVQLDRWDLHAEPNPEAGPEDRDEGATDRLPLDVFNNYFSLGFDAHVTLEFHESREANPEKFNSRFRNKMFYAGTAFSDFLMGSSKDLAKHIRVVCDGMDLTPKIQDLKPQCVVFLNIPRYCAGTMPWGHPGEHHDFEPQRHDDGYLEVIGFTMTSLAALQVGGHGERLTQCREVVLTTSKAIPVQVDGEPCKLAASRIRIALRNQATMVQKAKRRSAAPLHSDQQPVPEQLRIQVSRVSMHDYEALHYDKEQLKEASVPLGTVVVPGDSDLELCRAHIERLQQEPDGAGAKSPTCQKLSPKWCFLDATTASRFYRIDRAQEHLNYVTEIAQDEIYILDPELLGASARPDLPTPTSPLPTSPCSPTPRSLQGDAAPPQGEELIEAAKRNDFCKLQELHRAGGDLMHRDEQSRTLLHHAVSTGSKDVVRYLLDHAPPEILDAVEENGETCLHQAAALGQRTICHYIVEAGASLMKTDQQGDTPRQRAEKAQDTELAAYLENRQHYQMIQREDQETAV
Experiment: Biochemical DGK IC50 assay (ADP-Glo, lipid micelle substrate), DGKζ
Settings: 1 hour preincubation, 1 hour reaction, room temperature
value.kind: pIC50
// returns pIC50 (minus log10 of molar concentration), number only

Return reported pIC50; argument: CCn1c(CC#N)nc2c(N3C[C@@H](C)N(C(C)c4cc(C(F)(F)F)ccc4F)C[C@@H]3C)nc(=O)n(C)c21 (stereo partly drawn) [Compound A114]
6.61

Return reported pIC50; argument: CCn1c(CC#N)nc2c(N3C[C@@H](C)N(C(C)c4c(F)cc5c(c4F)OC(C)(C)O5)C[C@@H]3C)nc(=O)n(C)c21 (single isomer, unassigned) [Compound A176a]
7.40

Return reported pIC50; argument: CC(c1ccc(F)cc1OC(C)(F)F)N1C[C@H](C)N(c2nc(=O)n(C)c3c2nc(CC#N)n3C)C[C@H]1C (stereo partly drawn) [Compound A31]
8.40
